Data provenance: the supplement of paper PMC3545927

Target: furin, P09958;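 further: purified furin at 1:10 enzyme:substrate in 50 mM HEPES pH 7.5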
Sequence (P09958 whole entry): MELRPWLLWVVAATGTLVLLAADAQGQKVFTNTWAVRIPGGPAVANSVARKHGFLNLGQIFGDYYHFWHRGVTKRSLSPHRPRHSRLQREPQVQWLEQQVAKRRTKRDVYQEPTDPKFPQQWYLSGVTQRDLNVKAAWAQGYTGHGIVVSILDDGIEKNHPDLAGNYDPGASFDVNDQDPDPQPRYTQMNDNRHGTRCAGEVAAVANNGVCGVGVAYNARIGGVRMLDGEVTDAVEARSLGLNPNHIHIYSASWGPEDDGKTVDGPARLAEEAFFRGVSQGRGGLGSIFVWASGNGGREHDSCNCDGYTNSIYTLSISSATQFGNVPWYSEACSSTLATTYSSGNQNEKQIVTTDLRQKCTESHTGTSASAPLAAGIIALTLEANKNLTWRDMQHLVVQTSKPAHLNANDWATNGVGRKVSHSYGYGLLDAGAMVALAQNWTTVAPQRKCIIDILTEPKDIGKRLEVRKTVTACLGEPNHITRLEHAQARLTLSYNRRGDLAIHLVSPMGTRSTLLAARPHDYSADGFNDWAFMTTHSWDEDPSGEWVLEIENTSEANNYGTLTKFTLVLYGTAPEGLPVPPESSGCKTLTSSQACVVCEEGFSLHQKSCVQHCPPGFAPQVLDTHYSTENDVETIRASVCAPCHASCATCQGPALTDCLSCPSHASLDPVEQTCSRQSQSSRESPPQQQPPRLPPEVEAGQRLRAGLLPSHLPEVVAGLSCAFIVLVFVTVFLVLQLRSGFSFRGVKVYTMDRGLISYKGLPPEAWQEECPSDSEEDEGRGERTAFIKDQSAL
Experiment: furin cleavage Z-score vs untreated control; higher = more cleavage, active = 3.5 or more, inactive = 1 or less, 8 variable residues between constant flanks
Conditions: 15 min
The list shows a part of the results. The true hit rate is not given.
assay-endpoint: furin cleavage Z-score

[[record]]
item_sequence = "CAEPEPDVAVAGNASASA [HC1242]"
recorded_number = -1.89

[[record]]
item_sequence = "CATVSSEANAAGNASASA [HC1364]"
recorded_number = -1.5

[[record]]
item_sequence = "CAWPHRSRKAAGNASASA [FS-574]"
recorded_number = 1.32

[[record]]
item_sequence = "CARFYRPVAVAGNASASA [FS-2670]"
recorded_number = -1.03

[[record]]
item_sequence = "CARVARAMSIAGNASASA [FS-1797]"
recorded_number = 0.561

[[record]]
item_sequence = "CAGPSRFRKAAGNASASA [FS-162]"
recorded_number = 5.93

[[record]]
item_sequence = "CAVVCCSMSVAGNASASA [HC2090]"
recorded_number = 0.955

